Recorded below: pIC50, system Acetylcholinesterase (Electrophorus electricus, UniProt O42275).
Numbers only, as −log10 of the molar value.

Worked set:
In [3]: df
Out[3]:
                                   compound  observed_measurement
0  COc1ccc2cc3[n+](cc2c1OC)CCc1cc2c(cc1-3)OCO2 [BERBERINE CHLORIDE]                  6.43
1  COc1ccc2cc3[n+](cc2c1OCCCCOc1cccc2[nH]c4ccccc4c12)CCc1cc2c(cc1-3)OCO2                  6.07
2  COc1ccc2cc3[n+](cc2c1OCCCCCCOc1ccccc1)CCc1cc2c(cc1-3)OCO2                  6.28
3  COc1ccc2cc3[n+](cc2c1OCCOc1ccccc1)CCc1cc2c(cc1-3)OCO2                  6.65
4  COc1ccc2cc3[n+](cc2c1OCCCOn1nnc2ccccc21)CCc1cc2c(cc1-3)OCO2                  6.44

Record "COc1ccc2cc3[n+](cc2c1OCCCCCCOc1cccc2[nH]c4ccccc4c12)CCc1cc2c(cc1-3)OCO2" , field pIC50: 5.68
